biological target: β-secretase (BACE) (Homo sapiens, UniProt P56817); construct: purchased Panvera; test: BACE FS1 % Inhibition Assay; type: biochemical; conditions: 3 μM test compound
Sequence (P56817 46-501): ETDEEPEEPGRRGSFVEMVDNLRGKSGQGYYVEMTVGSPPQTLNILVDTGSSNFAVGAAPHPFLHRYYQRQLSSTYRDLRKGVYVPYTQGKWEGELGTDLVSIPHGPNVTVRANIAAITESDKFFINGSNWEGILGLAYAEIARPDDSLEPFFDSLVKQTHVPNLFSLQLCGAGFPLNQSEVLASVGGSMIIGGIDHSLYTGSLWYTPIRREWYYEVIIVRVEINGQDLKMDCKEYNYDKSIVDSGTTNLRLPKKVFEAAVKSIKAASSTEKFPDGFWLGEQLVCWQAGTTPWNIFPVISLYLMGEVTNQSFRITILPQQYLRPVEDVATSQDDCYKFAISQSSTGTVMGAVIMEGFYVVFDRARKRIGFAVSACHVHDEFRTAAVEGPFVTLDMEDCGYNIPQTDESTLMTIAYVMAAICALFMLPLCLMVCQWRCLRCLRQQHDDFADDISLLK
QUANTITY KIND: % Inhibition (FS)

Worked examples, 5 molecules total:
[[record]]
molecule = "CN(C(=O)c1cccc(CN2Cc3cc(Nc4ccc(N5CCOCC5)cc4)ccc3N=C2N)c1)C1CCCCC1"
assayed_system = "β-secretase (BACE) (Homo sapiens, UniProt P56817)"
experimental_result = "<30%"

[[record]]
molecule = "COc1ccccc1-c1ccc2c(c1)CN(CCNC(=O)CCCN)C(N)=N2"
assayed_system = "β-secretase (BACE) (Homo sapiens, UniProt P56817)"
experimental_result = "<30%"

[[record]]
molecule = "CC(=O)Nc1ccccc1-c1ccc2c(c1)CN(CCNC(=O)C1CCCCC1)C(N)=N2"
assayed_system = "β-secretase (BACE) (Homo sapiens, UniProt P56817)"
experimental_result = "<30%"

[[record]]
molecule = "CN(C(=O)c1cccc(CN2Cc3cc(OCc4ccccc4-c4ccccc4)ccc3N=C2N)c1)C1CCCCC1"
assayed_system = "β-secretase (BACE) (Homo sapiens, UniProt P56817)"
experimental_result = "<30%"

[[record]]
molecule = "CN(C(=O)c1cccc(CN2Cc3cc(Oc4ccccc4S(C)(=O)=O)ccc3N=C2N)c1)C1CCCCC1"
assayed_system = "β-secretase (BACE) (Homo sapiens, UniProt P56817)"
experimental_result = "<30%"


Find the recorded % Inhibition (FS) belonging to CC(C)C(CC(=O)NC1C2CC3CC(C2)CC1C3)N1Cc2cc(Oc3ccccc3)ccc2N=C1N (stereo not shown) and report it.
99%

Then CN1CCC(N(C)C(=O)c2cccc(C(c3ccccc3)N3Cc4cc(Oc5ccccc5)ccc4N=C3N)c2)CC1 (stereo not shown) ?
<30%

---

biological target: β-secretase (BACE) (Homo sapiens); construct: purchased Panvera; test: BACE FS1 % Inhibition Assay; format: biochemical; conditions: 1 μM compound; FS1 substrate
QUANTITY KIND: % Inhibition (FS)

[[record]]
compound = "NC1=Nc2ccc(-c3cnc4ccccc4c3)cc2CN1CCNC(=O)C12CC3CC(CC(C3)C1)C2 [Compound 672]"
experimental_result = "<30%"


Value lookup for % Inhibition (FS); key = NC1=Nc2ccc(-c3ccc4ccccc4c3)cc2CN1CCNC(=O)C12CC3CC(CC(C3)C1)C2 [Compound 665]
<30%

And for CC(=O)N1CCC(C(=O)NCCN2Cc3cc(-c4ccccc4)ccc3N=C2N)CC1 [Compound 702] ?
<30%

Request: Cc1ccccc1-c1ccc2c(c1)CN(CCNC(=O)C1CCC(C(F)(F)F)CC1)C(N)=N2 (centres unmarked) [Compound 694]
<30%

---

Target: β-secretase (BACE) (Homo sapiens)
Construct: purchased Panvera
Assay: BACE FS1 % Inhibition Assay
Type: biochemical
Settings: 0.3 μM compound; FS1 substrate
Experimental: The following reagents were used in this assay: sodium acetate, PEG8000 (Sigma), DMSO, HEPES, FS1 substrate [[…]] […] The FS1-substrate stock solution was prepared in DMSO as a 10 mg/mL solution. The FS1-substrate working solution was prepared by diluting the 10 mg/mL stock solution with substrate assay buffer to a final concentration of 300 μg/mL. […] For test compounds, % inhibition was determined at each concentration as follows: [formula]
Here the recorded % Inhibition (FS) is given for each entry.

[[record]]
molecule = "CNC(=O)C1CCC(N(C)C(=O)CCC(C2CCCCC2)N2Cc3cc(Oc4ccccc4)ccc3N=C2N)CC1 (centres unmarked) [Compound 765]"
experimental_result = "<30%"

[[record]]
molecule = "CN(CC(=O)O)C(=O)CCC(C1CCCCC1)N1Cc2cc(Oc3ccccc3)ccc2N=C1N (centres unmarked) [Compound 767]"
experimental_result = "<30%"

[[record]]
molecule = "NC1=Nc2ccc(-c3cnc4ccccc4c3)cc2CN1CCNC(=O)C12CC3CC(CC(C3)C1)C2 [Compound 672]"
experimental_result = "<30%"

[[record]]
molecule = "COC1CCCC(C(=O)NCCN2Cc3cc(C4=CCCC4)ccc3N=C2N)C1 (centres unmarked) [Compound 706]"
experimental_result = "<30%"

[[record]]
molecule = "NC1=Nc2ccc(-c3ccccc3F)cc2CN1CCNC(=O)C1CCOCC1 [Compound 687]"
experimental_result = "<30%"


Consider the molecule COC1CCCC(C(=O)NCCN2Cc3cc(-c4ccccc4)ccc3N=C2N)C1 (centres unmarked) [Compound 703] and give its measured % Inhibition (FS).
<30%

Now consider Cc1ccccc1-c1ccc2c(c1)CN(CCNC(=O)C1CCC(C(F)(F)F)CC1)C(N)=N2 (centres unmarked) [Compound 694] .
<30%

Also need CC(=O)N1CCC(C(=O)NCCN2Cc3cc(-c4ccccc4C)ccc3N=C2N)CC1 [Compound 695] , thanks.
<30%
